molecular target: monomeric HLA-A2:HPV16E7(11-19) peptide complex, soluble (human; human papillomavirus type 16); assay: SPR 25C, mAb captured
attribute.measured: kon (M⁻¹ s⁻¹)
Field: numeric (M⁻¹ s⁻¹). Do not append units.

## Input Endpoint output: kon of H4sH17672P (antibody, V domains shown) VH: EVQLVESGGGLVQPGASLRLSCEASGFTLSFYSMHWVRQAPGRELEYVSGISGNGNNIYYRDSVKGRFTISRDNSKNTLNLQMGSVRAEDMGVYYCARSYSSGNSYNYYYGMDVWGQGTTVTVSS VL: DIQMTQSPSSLSASVGDRVTITCRASQTISSYLNWYQQKPGKAPKLLIYAVSNLQSGVPSRFSGSGSGTDFTLTISSLQPEDFATYYCQQSYSTPPITFGQGTRLEIK . Value?
## Output 129000

## Input Endpoint output: kon of H4sH17363N (antibody, V domains shown) VH: EVQLLESGGGLVQPGGSLRLSCAASGFTFSSYAMTWVRQAPGMGLEWVSVISGSGSETYYADSVKGRFTISRDNSKNTLYLQMNSLRAEDTAVYYCVKDSSYRSSSRAYYYYGMDVWGLGTTVTVSS VL: DIQMTQSPSSLSASVGDRVTITCRASQSISSYLNWYQQKPGKAPKLLIYAVSILQSGVPSRFSGSGSGTDFTLTINSLQPEDFATYSCQQTYSTPPITFGQGTRLEIKR . Value?
## Output 87200

## Input Endpoint output: kon of H4sH21079P (antibody, V domains shown) VH: EVQLVESGGGLVKPGGSLRLSCAASGFTFSNAWMSWVRQAPGKGLEWVGRIKTRADGGTTDYAAPVKGRFTISRDDSKNTLYLQLNSLKTEDTAVYYCTSHNWNYEDFDYWGQGTLVTVSS VL: DIQMTQSPSSLSASVGDRVTITCRASQSISNYLNWYQQKPGKAPKLLIYAASSLQSGVPSRFSGSGSGTDFTLTISSLQPEEFATYYCQQSYSIPYTFGQGTKLEIK . Value?
## Output 37400

## Input Endpoint output: kon of H4sH17675P (antibody, V domains shown) VH: EVQLVESGGGLVQPGASLRLSCEASGFTLSFYAMHWVRQAPGKELEYVSGISGNGNSIYYRDSVKGRFTISRDNSKNTLYLQMGSVGAEDMAVYYCARSYSSGNSYYYYYGMDVWGQGTTVTVSS VL: DIQMTQSPSSLSASVGDRITITCRASQSISSYLNWYQQKPGKAPNLLIYAASNLQSGVPSRFSGSGSGTDFTLTISSLQPEDFATYYCQQSYSTPPITFGQGTRLEIKR . Value?
## Output 59900
